Measurement target: T1, recombinant RSV protein G, G(B): residues 66-292 of strain 18537 (human respiratory syncytial virus …, UniProt P20896 66-292)
T1 construct: also called soluble recombinant G protein; recombinant protein G
T1 sequence: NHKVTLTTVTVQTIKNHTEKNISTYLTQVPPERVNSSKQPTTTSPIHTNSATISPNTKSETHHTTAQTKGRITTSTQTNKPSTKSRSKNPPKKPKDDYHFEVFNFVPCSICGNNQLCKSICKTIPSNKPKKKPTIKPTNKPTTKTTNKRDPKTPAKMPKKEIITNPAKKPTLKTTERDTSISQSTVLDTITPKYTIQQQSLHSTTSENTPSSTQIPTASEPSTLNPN
Assay procedure: SPR Biacore 3000, Fab over amine-coupled recombinant protein G
Readout kind: kon (M⁻¹ s⁻¹)
Please respond with the number in M⁻¹ s⁻¹ and leave the unit unwritten.

Query: Which kon value belongs to Fab fragment of antibody 853 (Fab, also called Fab clone 853) VH: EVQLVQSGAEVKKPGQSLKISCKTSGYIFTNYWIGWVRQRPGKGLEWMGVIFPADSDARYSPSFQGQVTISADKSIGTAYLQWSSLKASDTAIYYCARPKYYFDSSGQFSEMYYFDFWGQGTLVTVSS light: EIVLTQSPGTLSLSPGERATLSCRASQSVSSNYLAWYQQKPGQAPRLLIYGASSRAAGMPDRFSGSGSGTDFTLTISRLEPEDFAVYYCQQYGNSPLTFGGGTEVEIKRTVAAPSVFIFPPSDEQLKSGTASVVCLLNNFYPREAKVQWKVDNALQSGNSQESVTEQDSKDSTYSLSSTLTLSKADYEKHKVYACEVTHQGLSSPVTKSFNRGEC ?
Result: 1.77e+06

The origin of these recorded values is patent US20080226630A1.
